- ASSAYED SYSTEM: Histone acetyltransferase p300 (Homo sapiens, UniProt Q09472)
- Sequence (Q09472 whole entry, the tested form may be a part): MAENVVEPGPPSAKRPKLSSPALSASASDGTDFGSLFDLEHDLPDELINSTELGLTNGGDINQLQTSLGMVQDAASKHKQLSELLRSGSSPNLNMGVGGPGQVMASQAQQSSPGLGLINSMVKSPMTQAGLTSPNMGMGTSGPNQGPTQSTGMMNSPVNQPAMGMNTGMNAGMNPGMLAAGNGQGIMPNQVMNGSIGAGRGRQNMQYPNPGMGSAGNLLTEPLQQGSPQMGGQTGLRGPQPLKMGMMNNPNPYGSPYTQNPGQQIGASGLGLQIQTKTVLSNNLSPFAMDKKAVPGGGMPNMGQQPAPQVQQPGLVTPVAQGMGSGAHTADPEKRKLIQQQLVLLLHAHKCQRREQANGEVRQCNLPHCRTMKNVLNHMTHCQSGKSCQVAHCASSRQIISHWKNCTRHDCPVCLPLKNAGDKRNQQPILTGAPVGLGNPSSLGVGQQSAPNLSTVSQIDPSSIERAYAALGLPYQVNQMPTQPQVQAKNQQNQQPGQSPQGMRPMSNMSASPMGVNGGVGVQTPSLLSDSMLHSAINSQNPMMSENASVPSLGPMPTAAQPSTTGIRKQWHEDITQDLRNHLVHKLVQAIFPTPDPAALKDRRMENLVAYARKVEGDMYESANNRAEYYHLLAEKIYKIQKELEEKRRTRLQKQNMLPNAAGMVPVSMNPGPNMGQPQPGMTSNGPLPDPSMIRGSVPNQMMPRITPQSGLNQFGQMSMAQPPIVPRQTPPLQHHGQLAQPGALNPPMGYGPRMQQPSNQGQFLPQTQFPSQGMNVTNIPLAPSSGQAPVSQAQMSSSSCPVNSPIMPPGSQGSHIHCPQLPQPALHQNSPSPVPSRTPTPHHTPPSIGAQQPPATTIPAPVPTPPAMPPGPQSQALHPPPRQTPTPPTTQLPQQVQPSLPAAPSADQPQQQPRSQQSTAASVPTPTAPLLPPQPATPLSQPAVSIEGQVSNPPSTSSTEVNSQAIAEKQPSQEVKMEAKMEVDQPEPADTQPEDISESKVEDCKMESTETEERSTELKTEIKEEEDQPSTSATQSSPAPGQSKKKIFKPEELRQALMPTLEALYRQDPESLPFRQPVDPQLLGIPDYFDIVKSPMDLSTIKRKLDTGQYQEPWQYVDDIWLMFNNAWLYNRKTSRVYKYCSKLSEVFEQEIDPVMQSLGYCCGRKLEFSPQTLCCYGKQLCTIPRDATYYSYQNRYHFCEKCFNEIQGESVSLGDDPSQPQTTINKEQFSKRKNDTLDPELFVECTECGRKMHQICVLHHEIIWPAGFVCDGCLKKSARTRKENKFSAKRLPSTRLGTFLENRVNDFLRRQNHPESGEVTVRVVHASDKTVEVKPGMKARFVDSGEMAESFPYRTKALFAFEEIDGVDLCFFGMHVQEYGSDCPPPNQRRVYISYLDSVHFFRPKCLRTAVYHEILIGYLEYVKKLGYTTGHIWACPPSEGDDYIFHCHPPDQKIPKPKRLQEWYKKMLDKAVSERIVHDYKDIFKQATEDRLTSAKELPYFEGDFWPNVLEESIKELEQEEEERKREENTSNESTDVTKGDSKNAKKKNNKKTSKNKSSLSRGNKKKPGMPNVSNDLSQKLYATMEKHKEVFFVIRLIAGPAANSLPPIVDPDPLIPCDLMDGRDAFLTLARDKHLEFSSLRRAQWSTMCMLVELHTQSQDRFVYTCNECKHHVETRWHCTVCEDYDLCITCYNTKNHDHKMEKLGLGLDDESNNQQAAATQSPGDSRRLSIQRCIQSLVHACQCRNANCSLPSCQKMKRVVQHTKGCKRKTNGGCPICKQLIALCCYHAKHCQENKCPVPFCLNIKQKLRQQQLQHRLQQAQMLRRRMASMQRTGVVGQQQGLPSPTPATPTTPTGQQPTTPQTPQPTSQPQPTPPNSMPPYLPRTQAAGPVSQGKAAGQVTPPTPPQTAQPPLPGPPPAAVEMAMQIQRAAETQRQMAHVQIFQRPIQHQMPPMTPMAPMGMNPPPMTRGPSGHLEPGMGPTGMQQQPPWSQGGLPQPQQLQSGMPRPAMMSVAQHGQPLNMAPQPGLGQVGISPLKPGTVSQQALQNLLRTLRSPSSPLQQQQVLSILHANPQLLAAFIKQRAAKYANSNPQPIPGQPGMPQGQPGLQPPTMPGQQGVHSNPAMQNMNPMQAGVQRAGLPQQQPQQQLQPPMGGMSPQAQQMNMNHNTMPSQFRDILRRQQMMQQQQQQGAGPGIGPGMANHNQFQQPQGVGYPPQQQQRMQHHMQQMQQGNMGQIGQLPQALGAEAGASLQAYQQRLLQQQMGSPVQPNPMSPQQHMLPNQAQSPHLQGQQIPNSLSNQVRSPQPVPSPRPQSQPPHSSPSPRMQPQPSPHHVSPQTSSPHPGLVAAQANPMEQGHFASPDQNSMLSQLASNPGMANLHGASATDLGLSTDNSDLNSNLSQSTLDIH
- ASSAY INFO: Inhibition of recombinant P300 catalytic domain (1284 to 1673 residues) (unknown origin) using FITC- histone H4 peptide (1 to 19 residues) as substrate by electrophoretic mobility shift assay
MEASURED QUANTITY: IC50 (µM)
Record the value in µM, omitting the unit from your answer.

Quick one: IC50 of C#CCNC(=O)c1ccc(N2N=C(C)/C(=C/c3ccc(-c4cc(C)c(C)cc4[N+](=O)[O-])o3)C2=O)cc1 ?
14.1

Values from ChEMBL document CHEMBL3797061
